- TEST_SUMMARY: Pharmacokinetics of DPB after oral DPB or NaDPB and IV NaDPB in Beagle dogs
- Format: in vivo
- TEST_CONDITIONS: dog, in vivo, IV infusion 75 mg/kg, analyte DPB in plasma
MEASUREMENT_KIND: half-life (h)
The reply should contain only the number, in h.

Noted for O=C1NC(=O)C(c2ccccc2)(c2ccccc2)C(=O)N1.[Na] [NaDPB, sodium 5,5-diphenyl barbiturate] : its half-life reads 6

----------
- TEST_SUMMARY: Brain concentration of DPB after oral DPB or NaDPB and IV NaDPB in Sprague-Dawley rats
- Format: in vivo
- TEST_CONDITIONS: rat, in vivo, male, oral 150 mg/kg, 24 hr
MEASUREMENT_KIND: concentration at 24 h
Your reply should be a number followed by the unit it is expressed in.

concentration at 24 h recorded for this compound, O=C1NC(=O)C(c2ccccc2)(c2ccccc2)C(=O)N1.[Na] [NaDPB, sodium 5,5-diphenyl barbiturate] , is 29900 ng/g

----------
- TEST_SUMMARY: Brain concentration of DPB after oral DPB or NaDPB and IV NaDPB in Sprague-Dawley rats
- Assay type: in vivo
- TEST_CONDITIONS: rat, in vivo, male, oral 150 mg/kg, 36 hr
MEASUREMENT_KIND: concentration at 36 h (ng/g)
Hi! Could you send only the number? It should be in ng/g, unit omitted.

response.value for O=C1NC(=O)C(c2ccccc2)(c2ccccc2)C(=O)N1.[Na] [NaDPB, sodium 5,5-diphenyl barbiturate] (field: concentration at 36 h) = 23600

----------
- TEST_SUMMARY: Pharmacokinetics of DPB after oral DPB or NaDPB and IV NaDPB in Beagle dogs
- Type: in vivo
- TEST_CONDITIONS: Beagle, dog, in vivo, iv, 75 mg/kg, IV infusion 75 mg/kg, analyte DPB, read-out: AUC0-48
- Description: In accordance with the present invention, pharmacokinetic parameters were calculated using standard non-compartmental methods, as implemented in WinNonlin™ 4.0.1. […] The mean, SD and CV (%) were used to calculate the AUC0-t (μg·h/mL), C. […] AUC0-t was calculated using the linear trapezoidal rule, which employs an approximate integration formula. The area of each trapezoid was calculated, and the sum of all the areas of all the trapezoids yielded an estimate of the true area under the curve. […]
MEASUREMENT_KIND: AUC(0-t) (µg·h/mL)
Use µg·h/mL as the unit, but write only the number.

The molecule listed as O=C1NC(=O)C(c2ccccc2)(c2ccccc2)C(=O)N1.[Na] [NaDPB, sodium 5,5-diphenyl barbiturate] has a reported AUC(0-t) of 1620

----------
- TEST_SUMMARY: Pharmacokinetics of DPB after oral DPB or NaDPB and IV NaDPB in Sprague-Dawley rats
- Format: in vivo
- TEST_CONDITIONS: male, Sprague-Dawley, rat, in vivo, po, 150 mg/kg, male, oral 150 mg/kg, analyte DPB; read-out: AUC0-36
Field: AUC(0-t). Provide a value for each of the compounds that follow.
Please state the figure in µg·h/mL; there is no need to write the unit.

Recorded AUC(0-t) (compound O=C1NC(=O)C(c2ccccc2)(c2ccccc2)C(=O)N1 [DPB, 5,5-diphenyl barbituric acid, reference compound] ): 757

Just so you know, measured AUC(0-t) for O=C1NC(=O)C(c2ccccc2)(c2ccccc2)C(=O)N1.[Na] [NaDPB, sodium 5,5-diphenyl barbiturate] came out at 2720
